Reported GI50 values for the following compounds.
- System: IGROV-1
- test.summary: NCI tumour cell line growth inhibition, 48 h
The source made the active and inactive calls. Cut-off read from the data, not from the text of the source: active = GI50 up to about 1.1 µM and inactive = higher.
reported.metric: GI50

- smiles.text: "COC(=O)CCSC(=O)Nc1ccc(/N=N/c2ccccc2)cc1"
  observed.result: "56.9 µM (inactive)"
- smiles.text: "CSc1cc(-c2cc3ccccc3o2)oc(=O)c1C#N"
  observed.result: "7.4 µM (inactive)"
- smiles.text: "CCN(CC)/[N+]([O-])=N/OC"
  observed.result: "> 100 µM (inactive)"
- smiles.text: "CCSC1=C(C#N)C2(CCCCC2)C2=C(O)CC(C)(C)CC2=N1"
  observed.result: "26.5 µM (inactive)"
- smiles.text: "Cc1noc(NC(=O)Nc2ccccc2F)c1C#N"
  observed.result: "> 91.6 µM (inactive)"
- smiles.text: "COc1ccc(-c2cc(=O)c3ccccc3[nH]2)c(OC)c1"
  observed.result: "> 100 µM (inactive)"

----------
- System: HOP-92
- test.summary: NCI tumour cell line growth inhibition, 48 h
Calls of active or inactive are those of the source. Cut-off read from the data, not from the text of the source: active = GI50 up to about 1.1 µM and inactive = higher.
Outcome codes: T for active, F for inactive

- compound: "CC(=O)OC/C=C(/C=C/CNC1CCCCC1)OC(C)=O"
  label.class: "F"
- compound: "Cc1csc2nc(-c3ccncc3)cn12"
  label.class: "F"
- compound: "Cc1cc(-c2nc3ccc(F)cc3s2)ccc1NC(=O)C(N)CCCCN (configuration not stated)"
  label.class: "F"
- compound: "N#CC(C#N)=C(N)/C(C#N)=C/c1ccc2ccccc2n1"
  label.class: "F"
- compound: "O=C1CNc2cc(N3CCCCC3)ccc2N1"
  label.class: "F"
- compound: "CSc1cc(-c2cc3ccccc3o2)oc(=O)c1C#N"
  label.class: "T"
- compound: "CCCCCCCCCCCCCCCCCCNc1nc(=O)n(C2CC(OP(=O)(O)OCC3OC(n4cc(F)c(=O)[nH]c4=O)CC3O)C(CO)O2)cc1F (configuration not stated)"
  label.class: "F"
- compound: "CC1=CC(N2C(=O)C(C)=CC2O)NC1=O (configuration not stated)"
  label.class: "F"
- compound: "Cc1cc(N(CCC#N)CCC#N)ccc1/C=C1/CN(N2C(=O)/C(=C/c3ccc(N(CCC#N)CCC#N)cc3C)N=C2c2ccccc2)C(c2ccccc2)=N1"
  label.class: "F"
- compound: "O=C(COc1ccc(Cl)c(Cl)c1)N(Cc1ccccc1)Cc1ccc[n+](Cc2ccc(Cl)cc2S(=O)(=O)F)c1"
  label.class: "F"
- compound: "CC(C)(C)c1cc(-c2cc(C(C)(C)C)n(-c3ccccc3)n2)nn1-c1ccccc1"
  label.class: "F"
- compound: "N#Cc1ccc(-c2nc(C#N)c(N)o2)cc1"
  label.class: "F"
- compound: "COC(=O)CCSC(=O)Nc1ccc(/N=N/c2ccccc2)cc1"
  label.class: "F"
- compound: "CN(N=O)C(=O)Nc1ccc(C(=O)O)cc1"
  label.class: "F"
- compound: "Cc1n[nH]/c(=N\\S(=O)(=O)c2ccc(/N=N/c3c(O)c(C(=O)O)cc4ccccc34)cc2)s1"
  label.class: "F"
- compound: "O=C(C(=O)N1CC2C=CC1CC2)c1c[nH]c2ccccc12 (configuration not stated)"
  label.class: "F"
- compound: "COc1ccc(C(=O)Nc2ccc3oc(-c4ccccc4)nc3c2)cc1"
  label.class: "F"

----------
- Tested on: KM12
- test.summary: NCI tumour cell line growth inhibition, 48 h
Active and inactive are the calls of the source. Rule as the data show it: active = GI50 up to about 1.1 µM and inactive = higher. Where a SMILES comes first, the peptide text is derived from it. [ ]: non-standard residue; d: D form. Ac5c = NC1(C(=O)O)CCCC1
Outcome codes: active, inactive

- compound: "CC(C)(OCc1ccccc1)c1ccccc1P(c1ccccc1)c1ccccc1"
  measured.on: "KM12"
  label.class: "inactive"
- compound: "CC[C@H](CCCC[C@H]1CC[C@@H]2CC(=O)C[C@H]12)OC"
  measured.on: "KM12"
  label.class: "inactive"
- compound: "CC(C)(C)OC(=O)c1ccc(NCC2=CC(=O)C=CC2=O)cc1"
  measured.on: "KM12"
  label.class: "inactive"
- compound: "Nc1ccc(Sc2nnc(N)s2)cc1"
  measured.on: "KM12"
  label.class: "inactive"
- compound: "COc1cc2c(cc1OC)-c1cc3ccccc3c[n+]1CC2"
  measured.on: "KM12"
  label.class: "inactive"
- compound: "CN(C)CCN1Nc2c3ccccc3nc3c(C(=O)NCCCN(C)CCCNC(=O)c4ccc5c6c(c7ccccc7nc46)NN5CCN(C)C)ccc1c23"
  measured.on: "KM12"
  label.class: "active"
- compound: "CC12C=CC(C)(C3C(=O)C4C(C(=O)C31)C1(C)C=CC4(C)[S+]1[O-])[S+]2[O-] (configuration not stated)"
  measured.on: "KM12"
  label.class: "inactive"
- compound: "O=CN1CCN(CC(O)CN2CCCCC2)CC1 (configuration not stated)"
  measured.on: "KM12"
  label.class: "inactive"
- compound: "COc1ccc(C(=O)Nc2ccc3oc(-c4ccccc4)nc3c2)cc1"
  measured.on: "KM12"
  label.class: "inactive"
- compound: "CC(=O)OCCC1c2ccccc2-n2nc(-c3ccccc3)c(O)c21 (configuration not stated)"
  measured.on: "KM12"
  label.class: "inactive"
- compound: "O=C(C(=O)N1CC2C=CC1CC2)c1c[nH]c2ccccc12 (configuration not stated)"
  measured.on: "KM12"
  label.class: "inactive"
- compound: "CC(=O)O[C@H]1CC[C@@]2(C)C(=CC[C@@H]3C2CC[C@]2(C)Nc4[nH]ncc4CC32)C1 (some centres not stated)"
  measured.on: "KM12"
  label.class: "inactive"
- compound: "CNc1ccc2c(c1)Cc1ccccc1-2"
  measured.on: "KM12"
  label.class: "inactive"
- compound: "C=C(C)[C@@H]1CC[C@]2(C(=O)OC)CC[C@]3(C)[C@H](CC[C@@H]4[C@@]5(C)CC[C@H](O)C(C)(C)[C@@H]5CC[C@]43C)[C@@H]12 [METHYL BETULINATE]"
  measured.on: "KM12"
  label.class: "inactive"
- compound: "N=C(N)N/N=C/c1c(-c2ccc([N+](=O)[O-])cc2)nc2sccn12"
  measured.on: "KM12"
  label.class: "active"
- compound: "COC1(CCO)CC=CCC1(CCO)OC (configuration not stated)"
  measured.on: "KM12"
  label.class: "inactive"
- compound: "CC(C)(C)c1cc(-c2cc(C(C)(C)C)n(-c3ccccc3)n2)nn1-c1ccccc1"
  measured.on: "KM12"
  label.class: "inactive"
- compound: "Cc1cc(C)c(C2=NO[C@@H]3C(=O)N(c4ccc(Cc5ccc(N6C(=O)[C@H]7C(c8c(C)cc(C)cc8C)=NO[C@H]7C6=O)cc5)cc4)C(=O)[C@H]23)c(C)c1"
  measured.on: "KM12"
  label.class: "inactive"
- compound: "COC(=O)C1(NC(=O)C(C)NC(=O)C(CCCCN)NC(=O)C(CC(C)C)NC(C)=O)CCCC1 (configuration not stated) (Ac-LKA[Ac5c]-OMe; configuration not given here)"
  measured.on: "KM12"
  label.class: "inactive"
- compound: "CC1=CC(N2C(=O)C(C)=CC2O)NC1=O (configuration not stated)"
  measured.on: "KM12"
  label.class: "inactive"
- compound: "CCCCCCCCCCCCCCCCCCNc1nc(=O)n(C2CC(OP(=O)(O)OCC3OC(n4cc(F)c(=O)[nH]c4=O)CC3O)C(CO)O2)cc1F (configuration not stated)"
  measured.on: "KM12"
  label.class: "inactive"
- compound: "O=S(=O)(N/N=C/c1ccc(/C=N/NS(=O)(=O)c2ccccc2)cc1)c1ccccc1"
  measured.on: "KM12"
  label.class: "inactive"
- compound: "Cc1ccc(S(=O)(=O)c2c(O)c3ccc(O)c(C)c3oc2=O)cc1"
  measured.on: "KM12"
  label.class: "inactive"
- compound: "CCC(c1ccccc1)c1cc(C(C)(C)C)cc(C(C)(C)C)c1O (configuration not stated)"
  measured.on: "KM12"
  label.class: "inactive"
- compound: "Cc1ccc(NC(=O)COc2ccc(Cl)cc2)cc1Cl"
  measured.on: "KM12"
  label.class: "inactive"
- compound: "Cn1c(C(C#N)c2nc(Cl)ncc2Br)nc2ccccc21 (configuration not stated)"
  measured.on: "KM12"
  label.class: "inactive"
- compound: "O=C1NC2(CCCCC2)N=C2C(Cl)CCCC12Cl (configuration not stated)"
  measured.on: "KM12"
  label.class: "inactive"
- compound: "Cn1c(=O)nc2n(-c3ccc(F)c(F)c3)c3ccccc3nc-2c1=O"
  measured.on: "KM12"
  label.class: "inactive"
- compound: "CSc1c(C#N)c(=O)n(N)c2c1c(C)nn2-c1ccccc1"
  measured.on: "KM12"
  label.class: "inactive"
- compound: "CCC(C)Cn1c(C)nc2c1C(=O)c1ccccc1C2=O (configuration not stated)"
  measured.on: "KM12"
  label.class: "inactive"
- compound: "CC1(C)COP(=S)(c2ccccn2)O[C@@H]1c1ccccc1 (some centres not stated)"
  measured.on: "KM12"
  label.class: "inactive"
- compound: "Cc1ccnc(NC(NC(=O)c2ccccc2)(C(F)(F)F)C(F)(F)F)c1"
  measured.on: "KM12"
  label.class: "inactive"
